- Test Target: the molecule itself
- Measurement Description: SEC; data not shown; Superdex 75 10/300 GL, 10 mM Tris-HCl, 150 mM NaCl, 500 µM CaCl2, 10 µM ZnCl2, pH 7.4
Provide the recorded stoichiometry N for the entries that follow.
# output: bare number, no unit

Given the entry S100A12 incubated with 40 µM MGO (natural protein, UniProt P80511 1-92, looked up, hydroimidazolone, MGO-hemiaminal/CEA, argpyrimidine and tetrahydropyrimidine at R21; CEL at K3, K30, K34, K39, K49, K83, K91; carboxyethylation of the N-terminus (partial), S100A12 as in m1, chemically modified with methylglyoxal; Heterogeneous mixture of modified and unmodified chains; also called MGO-modified S100A12 (40 µM MGO); source: E. coli One Shot BL21 (DE3), purified; incubated with 40 µM methylglyoxal at 37 °C for 1, 3 or 7 days, excess reagent removed by ultrafiltration) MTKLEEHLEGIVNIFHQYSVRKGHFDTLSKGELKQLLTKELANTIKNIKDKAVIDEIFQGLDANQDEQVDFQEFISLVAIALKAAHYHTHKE , report its measured stoichiometry N.
6

stoichiometry N lookup needed for S100A12 incubated with 4 µM MGO (natural protein, UniProt P80511 1-92, looked up, hydroimidazolone (+54 Da) and MGO-hemiaminal/CEA (+72 Da) at R21 (partial, low modification degree), S100A12 as in m1, chemically modified with methylglyoxal; Heterogeneous mixture of modified and unmodified chains; also called MGO-modified S100A12 (4 µM MGO); source: E. coli One Shot BL21 (DE3), purified; incubated with 4 µM methylglyoxal at 37 °C for 1, 3 or 7 days, excess reagent removed by ultrafiltration) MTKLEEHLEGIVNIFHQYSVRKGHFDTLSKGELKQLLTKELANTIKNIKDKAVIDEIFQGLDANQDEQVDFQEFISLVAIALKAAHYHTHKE , thanks.
6
